All values here come from PubChem BioAssay (NCI).

Tested on: 786-0 renal
Test summary: NCI tumour cell line growth inhibition, 48 h; in the data active means GI50 below about 0.43 µM; inactive means the rest
Please state which outcome applies, choosing from active, inactive

# fetch the recorded call for `O=C(/C=C\c1ccc(NCc2ccc(C(=O)O)cc2)cc1)CCl` here
inactive

Assay outcome for `Cn1c(=O)c(Cc2ccccc2F)cc2cnc(NC3CCOCC3)nc21` : what was it?
inactive

Which result was noted for this molecule in the test: `O=c1cc(NC2CCN(CCCc3ccccc3)CC2)c2cc(Cl)ccc2o1`
inactive

Write down the call the test reported for this molecule. Item: `COc1ccc(/C=C/C(=O)C(CC2CCC2)C(=O)/C=C/c2ccc(OC)c(OC)c2)cc1OC`
inactive

Recorded test outcome, item `ClCc1cccc(Cn2cnc3nc(Cl)nc(Cl)c32)c1`
inactive

Returns: the outcome recorded for O=C1CSC(c2ccc(Cl)cc2Cl)N1c1ccc(F)cc1 (configuration not stated) in this assay.
inactive

// return assay outcome for `COc1cc(/C=C/c2cc(/C=C/c3ccc(O)c(OC)c3)n(C(=O)Nc3ccc(C)cc3C)n2)ccc1O`
inactive

Outcome? `COc1ccc(C(=O)COc2ccc(/C=C3\COc4ccc(OC)cc4C3=O)cc2)cc1`
inactive

Can you look up the reported call for `CCSc1nc(SCC)c2cn[nH]c2n1` for me?
inactive

How was `COc1cccc2c(=O)c3c(sc12)c(N1CCNCC1)nc1ccccc13` classified in this test?
inactive

Check the results log: what was the call for `COc1cc(C(=O)c2cc(C)c3[nH]c4ccc(C)cc4c3c2C)cc(OC)c1OC` ?
active

Which outcome was assigned to C1CCC([PH+](C2CCCCC2)C2CCCCC2[PH+](C2CCCCC2)C2CCCCC2)CC1.O=C(C1[CH-]CCCC1)C1CCCC[N-]1.[Au] (configuration not stated) in this test?
active

====

Test system: HS 578T breast
Test summary: NCI tumour cell line growth inhibition, 48 h
Attribute measured: TGI (µM)
Give the value, in units of µM, as a plain number.

Specify TGI for O=C1CSC(c2ccc(Cl)cc2Cl)N1c1ccc(F)cc1 (stereo not drawn) and stop.
39.9

Item `CC(CO)(CO)NCCCCn1ccc2c1C(=O)c1c(c(O)c3ccccc3c1O)C2=O` : provide TGI
73.4

Give the reported TGI for this molecule. `COc1cc(/C=C/c2ccc(OC)c(OC)c2)cc(OC)c1`
89.8

Give reported TGI value for `O=c1c2ccccc2c(=O)c2c1[nH]c1c(-c3ccccc3)c(-c3ccccc3)c(=O)c12`
31.1

====

I'd be grateful if you could share measured TGI for these entries.
System: 786-0 renal
Test summary: NCI tumour cell line growth inhibition, 48 h

Give the measured TGI for O=C1c2ccccc2C2(c3ccc(Cl)cc3)N[C@H]3CCCC[C@@H]3N12 (stereo partly drawn)
> 100 µM

Name the recorded TGI of the compound listed here: Clc1ccc2c(c1)-c1c3c(nn1-c1ccccc1)-c1ccccc1SC3O2 (stereo not drawn)
> 100 µM

Given the compound `COc1ccc(/C=C2\N=C(SC)NC2=O)cc1` , write its reported TGI.
> 100 µM

Input O=C1NC2OC(C(O)CO)C(O)C2O1 (stereo not drawn) , output reported TGI.
> 100 µM

Find the measured TGI of `CCCCN=C(c1ccccc1)N1CCOCC1` and report it.
> 100 µM

Report TGI for `COc1ccc(CCN2COc3c([C@@H](C)CCC=C(C)C)ccc(C)c3C2)cc1OC`
4.16 µM

Consider the compound `COc1cc(/C=C(\C#N)c2ccccc2)cc(OC)c1` . State its measured TGI.
> 100 µM

Provide TGI value for the following compound: `CN(C)CCN1C(=O)c2ccc3c4c(ccc(c24)C1=O)C(=O)N(CCN=C=S)C3=O`
0.416 µM

Look up TGI of `Nc1ccc(C(=O)N2CCC[C@H]2CO)c(N)c1` and report it.
> 100 µM

Hello, please tell me recorded TGI for this one: O=C(O)C1C(Br)(c2ccccc2)C1(Br)c1ccccc1 (stereo not drawn)
> 100 µM

Using the record for `O=C(O)/C=c1/c2ccccc2n2nc3ccccc3c12` , state its measured TGI.
> 100 µM

// Input: `CCOc1ccc(/C=C2/C(=O)N=C(NC(C)=O)N2C)cc1` . Output its TGI only.
> 100 µM

Specify reported TGI for the compound shown: `CC/C=C\C[C@H]1C/C=C2/C(=O)C=C[C@@H]2C/C=C\CCCC(=O)O1`
1.89 µM

Supply reported TGI belonging to this compound: S=C1OC2CCCC[C@H]2O1 (stereo partly drawn)
> 100 µM

For the compound `O=C1c2cccnc2-c2nccc3c2c1nc1cc(Br)ccc13` , report TGI.
0.188 µM

Please supply the value of reported TGI for the item `O=C(NCO)NCOCn1c(=O)n(CO)c(=O)n(CO)c1=O`
> 100 µM

Identify TGI associated with the compound O=C1CC2CCCC23CC2(CCN13)OCCO2 (stereo not drawn)
> 100 µM

Supply recorded TGI for `O=C1CCC(O)=C1N=Nc1ccccc1` here.
> 100 µM

Write down TGI measured for item `O=[N+]([O-])/C(C(Cl)=C(Cl)Cl)=C(\N1CCCCC1)n1cncn1`
52.4 µM

Report measured TGI; entry is `CC(=O)[C@@]1(O)CC[C@H]2[C@@H]3C[C@H](C)C4=CC(=O)C=C[C@]4(C)[C@@]3(F)[C@@H](O)C[C@@]21C`
> 100 µM

Write down TGI measured for item CC(C)(C)c1cc(C(O)(C(F)(F)F)C(F)(F)F)c2c(c1)C(C(F)(F)F)(C(F)(F)F)OC(C(C)(C)C)N2 (stereo not drawn)
11.9 µM

Write down TGI measured for item `N#Cc1cccnc1Cl`
> 100 µM

Determine its reported TGI: `NNC(=O)CSc1nc2ccccc2c(=O)n1N`
57.4 µM

Please give measured TGI of the following entry: COc1ccc2nc(NC(=O)C(=O)C(C#N)c3ccc([N+](=O)[O-])cc3)sc2c1 (stereo not drawn)
> 100 µM

State its TGI for this compound: CC1=C(CO)C(=O)O[C@@H]([C@@H](CO)[C@H]2CCC3C4C[C@@H](O)[C@@]5(O)CC=CC(=O)[C@]5(C)C4CC[C@@]32C)C1 (stereo partly drawn)
> 100 µM

State, in one line, measured TGI of `O=C(/C=C\c1ccc(NCc2ccc(C(=O)O)cc2)cc1)CCl`
23.9 µM

Output measured TGI for this item: CCN1CCC(O)(/C=C/c2ccc(C)cc2C)C(C(=O)/C=C/c2ccc(C)cc2C)C1 (stereo not drawn)
3.32 µM

# return recorded TGI for entry CSc1cnc2ccccc2c1SC1CN(Cc2ccccc2)c2ccccc2C1=O (stereo not drawn)
> 100 µM

Look up TGI of O=C(Nc1c(Cl)cc([N+](=O)[O-])cc1Cl)C(=O)C(C1OC(=O)c2ccccc21)[N+](=O)[O-] (stereo not drawn) and report it.
> 100 µM

Quick one: give measured TGI for CC1CCCC(CC(=O)O)(CC(=O)O)C1 (stereo not drawn)
> 100 µM

Please supply the value of reported TGI for the item `O=C1O[C@H](c2ccc3c(c2)OCO3)[C@H]2CO[C@@H](c3ccc4c(c3)OCO4)[C@@H]12`
> 100 µM

Quote TGI reported for `NC(=O)NCc1c(C(N)=O)ncn1Cc1ccccc1` please.
> 100 µM

Give the reported TGI for this compound. `CCSc1nc(SCC)c2cn[nH]c2n1`
> 100 µM

For the compound `CC(=O)O[C@H]1CC[C@@]2(C)C(=CC[C@H]3[C@@H]4C[C@H](N5CCOCC5)[C@H](OC(C)=O)[C@@]4(C)CC[C@@H]32)C1` , give its measured TGI value.
> 100 µM

Given the compound `Cc1nc2sc3ccccc3n2c(=O)c1N=Nc1ccc(Cl)cc1` , write its reported TGI.
> 100 µM

Identify measured TGI corresponding to `C=C1C(=O)C=C[C@]2(C)CC[C@H]3C(=C)C(=O)O[C@@H]3[C@@H]12`
3.28 µM

# return recorded TGI for input `CC(C)(C[C@H]1CN(S(=O)(=O)c2cccc(C(F)(F)F)c2)c2cc(-c3cc(F)cc(OC(F)F)c3)ccc2O1)C(=O)O`
20.7 µM

Give the measured TGI for `O=C(CN(c1ccccc1)c1ccccc1)n1nnc2ccccc21`
> 100 µM

Give recorded TGI. `C=C1CN2CC(=C)CN(C1)CS(=O)(=O)N1CC(=C)CN(CC(=C)C1)S(=O)(=O)N1CC(=C)CN(CC(=C)C1)S(=O)(=O)C2`
58.9 µM

Kindly indicate its recorded TGI. Item: `On1c(-c2ccccc2)nc2ccccc2c1=S`
> 100 µM

Complete the entry with TGI for `CCC/C(Cl)=N\OC(=O)Nc1ccc(OC(F)(F)F)cc1`
26.1 µM

Supply recorded TGI for `CN1COCc2c1ccc1cc3ccc4c(c3nc21)COCN4S(C)(=O)=O` here.
> 100 µM

Let me know recorded TGI for Cc1ccc(-c2nc3ccc(Cl)cc3c(=O)n2N2C(=O)CSC2c2ccccc2Cl)cc1 (stereo not drawn) , thanks.
> 100 µM
